FYI, the data here is from PubChem BioAssay AID1159580.

# experiment.notes: chemical genetic growth profiling, strain panel (AID 1159580);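 also: tested at 20 µM; growth read once vehicle control cultures reached saturation at 30 °C; lower values mean less growth of the strain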
# experimental.context: S. cerevisiae deletion strains, growth OD, locus YKL160W, strain elf1, active compounds read low
About 2,000 (36%) of roughly 5,500 compounds were called active. Inconclusive results (about 18%) are left out. The list shows a part of the results.
Exam item: assign true to entries whose normalized growth is below 1 and false to entries at or above 1. Note that a value of exactly 1 receives false.

Is the reported normalized growth for CCCCC(=O)O[C@]1(C(=O)CO)[C@@H](C)CC2C3CCC4=CC(=O)C=C[C@]4(C)[C@@]3(F)C(O)C[C@@]21C (some centres not stated) strictly below 1? true

Is the reported normalized growth for C[C@H]1[C@H](C)CC[C@]2(C(=O)O)CC[C@]3(C)C(=CCC4[C@@]5(C)C[C@@H](O)[C@H](O)[C@@](C)(CO)C5[C@H](O)C[C@]43C)[C@H]12 (some centres not stated) strictly below 1? true

Is the reported normalized growth for "CC[C@@]1(O)C(=O)OCc2c1cc1n(c2=O)Cc2cc3ccccc3nc2-1" strictly below 1? true

Is the reported normalized growth for CCC(=O)OCC(=O)C1(OC(=O)CC)C(C)CC2C3C(Cl)CC4=CC(=O)C=CC4(C)C3C(O)CC21C (configuration not stated) strictly below 1? false

Is the reported normalized growth for Cc1ccccc1N1C(=O)c2cc(S(N)(=O)=O)c(Cl)cc2NC1C (configuration not stated) strictly below 1? true
